Kindly supply the reported inhibition values for the records listed here.
- Species: Bos taurus
- protocol: Inhibition of calf brain tubulin polymerization at 30 uM relative to control
Give bare numbers, in %.

Look over these answered cases.
{"smilesInput": "COc1ccc(/C(=N/O)c2ccc3ccccc3c2)c(OC)c1OC", "experimentalReadout": "inhibition", "experimentalResult": 0}
{"smilesInput": "COc1cc(/C(=N/O)c2ccc3ccccc3c2)cc(OC)c1OC", "experimentalReadout": "inhibition", "experimentalResult": 0}
{"smilesInput": "COc1cc(/C(=N/N)c2ccc3ccccc3c2)cc(OC)c1OC", "experimentalReadout": "inhibition", "experimentalResult": 0}
{"smilesInput": "CN/N=C(/c1cc(OC)c(OC)c(OC)c1)c1ccc2ccccc2c1", "experimentalReadout": "inhibition", "experimentalResult": 31}

Proceed to the following item.
Entry `COc1cc(/C(=N/NC(C)=O)c2ccc3ccccc3c2)cc(OC)c1OC` , inhibition reported as 35

###

- System: HeLa
- protocol: Cytotoxicity against human HeLa cells after 72 hrs by XTT assay
- Format: functional, cell-based
- setupConditions: hela
experimentalReadout: IC50

{"smilesInput": "COc1cc(/C(=N/NC(C)=O)c2ccc3ccccc3c2)cc(OC)c1OC", "IC50": "> 10 µM"}

Now look at this one.
`COc1ccc(C(=O)c2ccc3ccccc3c2)c(OC)c1OC` has a reported IC50 of 4 µM

###

- System: HeLa
- protocol: Cytotoxicity against human HeLa cells after 72 hrs by XTT assay
- Type: functional, cell-based
- setupConditions: Homo sapiens, HeLa, 72 h
Give pIC50 for every item shown.
Give bare numbers, as −log10 of the molar value.

{"compound": "COc1cc(/C(=N/O)c2ccc3ccccc3c2)cc(OC)c1OC", "pIC50": 5.82}

Please look at the items below and tell me pIC50 for each one, in order.
1. COc1ccc(C(OC(C)=O)c2ccc3ccccc3c2)c(OC)c1OC (centres undefined)
2. COc1ccc(/C(=N\OC(C)=O)c2ccc3ccccc3c2)c(OC)c1OC
3. COc1ccc(C(O)c2ccc3ccccc3c2)c(OC)c1OC (centres undefined)
4. COc1ccc(C(C)(O)c2ccc3ccccc3c2)c(OC)c1OC (centres undefined)
5. COc1cc(/C(=N/NC(C)=O)c2ccc3ccccc3c2)cc(OC)c1OC
6. COc1ccc(/C=C\c2cc(OC)c(OC)c(OC)c2)cc1O [COMBRETASTATIN A4]
7. COc1cc(/C(=N/OC(C)=O)c2ccc3ccccc3c2)cc(OC)c1OC

5.57
5.92
5.00
6.00
5.00
5.57
9.00

Summary for this compound, `COc1ccc(/C(=N/O)c2ccc3ccccc3c2)c(OC)c1OC` : pIC50 is 6.40

###

- Species: Bos taurus
- protocol: Inhibition of calf brain tubulin polymerization at 20 uM relative to control
Record form. Attribute: inhibition. Fill in for each entry.
Answers are plain numbers, in %.

{"compound": "CO/N=C(/c1cc(OC)c(OC)c(OC)c1)c1ccc2ccccc2c1", "experimentalResult": 4}
{"compound": "COc1ccc(C(C)(O)c2ccc3ccccc3c2)c(OC)c1OC (stereo not drawn)", "experimentalResult": 3}

I have 6 compounds here; please give me inhibition for each one.
1. COc1cc(/C(=N\OC(C)=O)c2ccc3ccccc3c2)cc(OC)c1OC
2. COc1cc(C(c2ccc3ccccc3c2)n2ccnc2)cc(OC)c1OC (stereo not drawn)
3. COc1ccc(/C(=N\N)c2ccc3ccccc3c2)c(OC)c1OC
4. COc1cc(/C(=N/OC(C)=O)c2ccc3ccccc3c2)cc(OC)c1OC
5. COc1ccc(/C(=N\OC(C)=O)c2ccc3ccccc3c2)c(OC)c1OC
6. COc1cc(/C(=N\OC(=O)OC(C)(C)C)c2ccc3ccccc3c2)cc(OC)c1OC

[10, 0, 0, 38, 0, 15]

###

- Organism: Bos taurus
- protocol: Inhibition of calf brain tubulin polymerization at 20 uM relative to control
experimentalReadout: inhibition
A bare number is not enough; add the unit after it.

{"compound": "COc1ccc(/C(=N\\NC(C)=O)c2ccc3ccccc3c2)c(OC)c1OC", "inhibition": "0%"}
{"compound": "COc1cc(/C(=N\\NC(C)=O)c2ccc3ccccc3c2)cc(OC)c1OC", "inhibition": "0%"}
{"compound": "COc1ccc(/C=C\\c2cc(OC)c(OC)c(OC)c2)cc1O", "inhibition": "100%"}

// each compound listed below needs its inhibition
1. COc1ccc(C(OC(C)=O)c2ccc3ccccc3c2)c(OC)c1OC (stereo not given)
2. COc1ccc(C(O)c2ccc3ccccc3c2)c(OC)c1OC (stereo not given)

1. 26%
2. 0%
